System: Jurkat cells
Test: Mitochondrial membrane potential (MitoTracker Red CMXR, flow cytometry)
Type: cell-based
Conditions: 2 hours, increasing concentrations
QUANTITY_MEASURED: mitochondrial membrane potential

INSERT INTO results (chemical_structure, quantity_measured, recorded_measurement) VALUES
  ('C=C(C)[C@@H]1CCC(C)=C[C@H]1C1=C(O)C(=O)C(CCCCC)=C(NCCCCC)C1=O', 'mitochondrial membrane potential', 'did not induce a loss'),
  ('C=C(C)[C@@H]1CCC(C)=C[C@H]1C1=C(O)C(=O)C(CCCCC)=C(NCCC(C)C)C1=O', 'mitochondrial membrane potential', 'did not induce a loss'),
  ('C=C(C)[C@@H]1CCC(C)=C[C@H]1C1=C(O)C(=O)C(CCCCC)=C(NC(C)C)C1=O', 'mitochondrial membrane potential', 'did not induce a loss'),
  ('C=C(C)[C@@H]1CCC(C)=C[C@H]1C1=C(O)C(=O)C(CCCCC)=C(NCCCC)C1=O', 'mitochondrial membrane potential', 'did not induce a loss');
